# target or test system: T1, VEGF(8-109) (UniProt P15692 214-315)
# T1 construct: range 8-109; Covalently coupled to the BIACORE chip (EDC/NHS); also called vascular endothelial growth factor
# T1 sequence (looked up): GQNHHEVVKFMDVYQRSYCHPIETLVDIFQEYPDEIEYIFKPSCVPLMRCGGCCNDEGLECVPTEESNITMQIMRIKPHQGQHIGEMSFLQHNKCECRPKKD
# measurement description: SPR (BIACORE-2000), Fab injected over immobilised VEGF(8-109), 25 C
property: kon (M⁻¹ s⁻¹)
Write the number in M⁻¹ s⁻¹ without appending the unit.

Y0313-2 Fab (Fab, V domains shown, Combines the CDR H3 insertion of Y0239-19 (VNERK) with T28D/N31H; also called CDR combination variant Y0313-2; Insert-Fab Y0313-2) VH: EVQLVESGGGLVQPGGSLRLSCAASGYDFTHYGMNWVRQAPGKGLEWVGWINTYTGEPTYAADFKRRFTFSLDTSKSTAYLQMNSLRAEDTAVYYCAKYPHYYVNERKSHWYFDVWGQGTL VL: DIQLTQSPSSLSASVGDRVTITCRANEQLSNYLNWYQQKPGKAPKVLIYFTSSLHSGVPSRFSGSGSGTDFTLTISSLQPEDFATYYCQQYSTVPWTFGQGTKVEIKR has a reported kon of 31100

***
Y0242-1 Fab (Fab, V domains shown, Clone from library YC-90, made on the Y0192 template; also called point mutant Y54W) VH: EVQLVESGGGLVQPGGSLRLSCAASGYTFTNYGMNWVRQAPGKGLEWVGWINTWTGEPTYAADFKRRFTFSLDTSKSTAYLQMNSLRAEDTAVYYCAKYPHYYGSSHWYFDVWGQGTL VL: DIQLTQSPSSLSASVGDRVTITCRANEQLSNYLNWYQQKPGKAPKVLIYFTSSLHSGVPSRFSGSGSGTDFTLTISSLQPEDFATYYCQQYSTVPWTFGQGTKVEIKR has a reported kon of 47000
